Data origin: the supplement of paper PMC10567573

B1: PLAGL1 (parent)
chain: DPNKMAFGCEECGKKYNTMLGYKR

Variants of: B1
Assay: protein stability index of a GFP-peptide fusion (GPS, HEK-293T) (PSI 1-6); higher = more stable;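 further: lentivirally expressed fusions sorted by FACS into six bins by GFP to DsRed ratio, PSI derived from sequencing read proportions per bin multiplied by bin number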
Conditions: c terminus: a fixed tail appended
result-type: protein stability index
When you answer, write just the number.

Specify measured protein stability index for P2M .
3.12

Provide one value: measured protein stability index of C9I
3.32

Supply protein stability index value. Item: M5V
1.93
